Known Kd of a selection of molecules
- system tested: dGA (SEQ ID NO: 5) (Homo sapiens, UniProt P10636)
- Sequence (P10636 614-707): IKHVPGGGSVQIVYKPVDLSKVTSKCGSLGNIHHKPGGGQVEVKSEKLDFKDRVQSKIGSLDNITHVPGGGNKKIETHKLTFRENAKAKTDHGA
- assay method text: Biacore X100 SPR kinetics of scAbs for dGA
- Assay type: binding
- condition info: Table 24; scAb, dGA analyte; dissociation rate

molecule: NS2A1: anti-tau clone, Table 11; SEQ ID NO: 220 (protein, NS2A1 amino acid sequence) scFv: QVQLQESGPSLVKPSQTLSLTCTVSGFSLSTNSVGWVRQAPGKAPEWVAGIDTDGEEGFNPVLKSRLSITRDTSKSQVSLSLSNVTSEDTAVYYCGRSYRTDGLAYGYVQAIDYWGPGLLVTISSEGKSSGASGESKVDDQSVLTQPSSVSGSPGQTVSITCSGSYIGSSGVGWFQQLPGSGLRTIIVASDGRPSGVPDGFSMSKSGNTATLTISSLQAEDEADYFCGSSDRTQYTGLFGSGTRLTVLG
Kd / s⁻¹: 0.00102
--
molecule: S1E12: anti-tau clone, Table 11; SEQ ID NO: 218 (protein, S1E12 amino acid sequence) scFv: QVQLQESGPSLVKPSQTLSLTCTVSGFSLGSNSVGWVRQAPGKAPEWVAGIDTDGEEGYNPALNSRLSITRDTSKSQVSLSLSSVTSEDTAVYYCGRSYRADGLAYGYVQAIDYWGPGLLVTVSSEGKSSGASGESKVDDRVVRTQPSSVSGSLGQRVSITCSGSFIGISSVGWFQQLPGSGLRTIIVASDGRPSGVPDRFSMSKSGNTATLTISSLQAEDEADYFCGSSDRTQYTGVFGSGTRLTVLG
Kd / s⁻¹: 0.001627
--
molecule: CE2: anti-tau core clone, Table 10; SEQ ID NO: 366 (protein, CE2/E1B8 amino acid sequence) scFv: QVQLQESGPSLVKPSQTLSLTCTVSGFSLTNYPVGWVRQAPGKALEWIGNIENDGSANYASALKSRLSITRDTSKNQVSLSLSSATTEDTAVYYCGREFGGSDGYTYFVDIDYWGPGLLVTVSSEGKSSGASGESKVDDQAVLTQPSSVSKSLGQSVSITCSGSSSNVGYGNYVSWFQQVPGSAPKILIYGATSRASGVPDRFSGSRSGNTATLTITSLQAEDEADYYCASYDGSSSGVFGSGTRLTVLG
Kd / s⁻¹: 0.00242
